# target.or.system: Fyn (UniProt P06241)
# Sequence (P06241 whole entry, looked up): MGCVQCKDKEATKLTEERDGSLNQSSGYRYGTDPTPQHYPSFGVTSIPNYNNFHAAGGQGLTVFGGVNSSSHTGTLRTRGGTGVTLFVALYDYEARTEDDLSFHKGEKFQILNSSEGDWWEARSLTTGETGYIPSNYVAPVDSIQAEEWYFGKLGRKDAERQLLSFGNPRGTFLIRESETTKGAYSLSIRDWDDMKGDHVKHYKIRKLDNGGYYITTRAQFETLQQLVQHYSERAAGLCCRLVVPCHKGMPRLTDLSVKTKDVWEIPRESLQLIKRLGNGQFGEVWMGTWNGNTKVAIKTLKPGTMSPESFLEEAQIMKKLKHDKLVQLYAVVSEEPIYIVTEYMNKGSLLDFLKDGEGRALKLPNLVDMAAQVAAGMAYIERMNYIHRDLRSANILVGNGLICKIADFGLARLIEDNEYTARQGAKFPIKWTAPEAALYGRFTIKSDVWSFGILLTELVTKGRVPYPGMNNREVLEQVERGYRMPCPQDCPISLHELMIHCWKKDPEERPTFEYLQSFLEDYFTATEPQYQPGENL
# assay.explanation: phosphorylation enrichment, bacterial display (enrichment ratio); higher = better substrate or ligand; peptides without Tyr show the background
measurement.type: phosphorylation enrichment
Please give only the number in your answer, with no unit.

residue.string: RESYKYFPSSL [CXXC1_Y218]
phosphorylation enrichment: 0.843
//
residue.string: NHFKIYNLCAE [PTEN_Y68_YF]
phosphorylation enrichment: 2.61
//
residue.string: NKFVAYIESQG [KDM4B_Y34_YF]
phosphorylation enrichment: 0.49
//
residue.string: ISIFFYAKGQP [MPZ_Y82_H81Y_YF]
phosphorylation enrichment: 0.395
//
residue.string: SKKVRYVVSKA [BARD1_Y156]
phosphorylation enrichment: 0.366
//
residue.string: FFTEEYVRAHP [DOCK2_Y1555_D1558A]
phosphorylation enrichment: 0.697

Read the entry ETSHNYHKFDS [MATR3_Y243] and write its reported phosphorylation enrichment.
0.401

Read the entry LLVVLNKFRCF [PSEN1_Y154_Y154N_YF] and write its reported phosphorylation enrichment.
1.02

Read the entry AKFPSYEKNKK [FOXL2_Y91_F90S] and write its reported phosphorylation enrichment.
0.423

Read the entry RPYSPYIIRGM [LRP5_Y1531_R1529S] and write its reported phosphorylation enrichment.
0.848

Read the entry SLTRLYVGENA [NLRP3_Y861] and write its reported phosphorylation enrichment.
0.424

Read the entry VAFVYYKSIGP [ADGRL4_Y302] and write its reported phosphorylation enrichment.
0.432

Read the entry PEADKYHLTFA [FGG_Y300_R301H_YF] and write its reported phosphorylation enrichment.
0.73

Read the entry LLKAGYHGVLR [TTPA_Y100] and write its reported phosphorylation enrichment.
0.693

Read the entry MGGSLYFSYPD [HIKESHI_Y55_V54L] and write its reported phosphorylation enrichment.
3.46

Read the entry HNLNYYKKTTN [FGFR3_Y648_D646N] and write its reported phosphorylation enrichment.
0.491

Read the entry SSSGAYGGGFG [KRT19_Y61_YF] and write its reported phosphorylation enrichment.
0.434

Read the entry RTMPDYTSFNT [EPHB2_Y912_I909M] and write its reported phosphorylation enrichment.
1.07

Read the entry QLFGPYLRIHA [BSCL2_Y213_A212P_YF] and write its reported phosphorylation enrichment.
0.588

Read the entry FRQNGYIPGSN [PCDHGA1_Y895_V894G_YF] and write its reported phosphorylation enrichment.
0.403

Read the entry SRGHQYQELPR [KCNH2_Y1009_R1007H] and write its reported phosphorylation enrichment.
0.487

Read the entry TLQSMYGCDLG [HLA-B_Y123_V127L] and write its reported phosphorylation enrichment.
0.576

Read the entry CGASGYSATST [CERT1_Y143_S138C] and write its reported phosphorylation enrichment.
0.476

Read the entry TGDFGYRAPGF [TNS2_Y668_YF] and write its reported phosphorylation enrichment.
0.6

###

# target.or.system: MERTK (UniProt Q12866)
# Sequence (Q12866 whole entry, looked up): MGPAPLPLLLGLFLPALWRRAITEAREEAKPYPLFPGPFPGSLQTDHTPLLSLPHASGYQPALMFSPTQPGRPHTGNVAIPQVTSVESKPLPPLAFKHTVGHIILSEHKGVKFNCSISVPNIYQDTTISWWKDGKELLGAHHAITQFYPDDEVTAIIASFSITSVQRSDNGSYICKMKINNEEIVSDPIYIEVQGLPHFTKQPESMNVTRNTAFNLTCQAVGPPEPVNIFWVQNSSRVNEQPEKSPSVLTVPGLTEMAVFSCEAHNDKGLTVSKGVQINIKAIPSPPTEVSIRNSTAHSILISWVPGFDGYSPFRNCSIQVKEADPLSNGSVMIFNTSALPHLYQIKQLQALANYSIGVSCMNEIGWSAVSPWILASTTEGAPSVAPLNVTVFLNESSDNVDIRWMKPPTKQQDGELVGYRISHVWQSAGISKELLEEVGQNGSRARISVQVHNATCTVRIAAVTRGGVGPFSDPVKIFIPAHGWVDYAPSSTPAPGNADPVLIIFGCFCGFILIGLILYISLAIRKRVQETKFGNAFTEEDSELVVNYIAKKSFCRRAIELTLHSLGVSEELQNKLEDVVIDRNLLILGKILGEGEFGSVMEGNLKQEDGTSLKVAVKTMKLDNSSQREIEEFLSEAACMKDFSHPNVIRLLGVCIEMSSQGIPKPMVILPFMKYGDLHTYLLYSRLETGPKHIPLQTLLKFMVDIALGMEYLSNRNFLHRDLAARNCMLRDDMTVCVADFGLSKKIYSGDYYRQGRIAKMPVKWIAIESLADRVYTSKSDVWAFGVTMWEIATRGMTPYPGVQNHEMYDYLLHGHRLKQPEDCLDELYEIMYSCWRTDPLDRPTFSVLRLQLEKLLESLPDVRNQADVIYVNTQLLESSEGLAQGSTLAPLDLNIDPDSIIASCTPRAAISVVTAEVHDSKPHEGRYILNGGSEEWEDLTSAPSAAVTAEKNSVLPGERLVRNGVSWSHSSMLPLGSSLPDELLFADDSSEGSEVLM
# assay.explanation: phosphorylation enrichment, bacterial display (enrichment ratio); higher = better substrate or ligand; peptides without Tyr show the background
Binning rule for recorded phosphorylation enrichment: lo (below 0.4), med (0.4 to below 0.6), hi (0.6 or more)

Below are worked cases with known answers.
residue.string: HNLNYYKKTTN [FGFR3_Y648_D646N]
answer.label: med
--
residue.string: QDRTFYERVRT [SPEN_Y633_S635R_YF]
answer.label: med
--
residue.string: HAEERYGKELV [PSTPIP1_Y53_Q48H]
answer.label: lo
--
residue.string: GVLKEYGEKVL [CPS1_Y529_V531E]
answer.label: med
--
residue.string: KQNSLYSFSDH [CCDC82_Y331]
answer.label: hi
--
residue.string: LRSRVYEVPVE [SLC26A3_Y756_N753S]
answer.label: hi
--
residue.string: RVDRDYVLKSA [HTATIP2_Y111]
answer.label: hi
--
residue.string: TTKAKYKTPTF [PLD2_Y573_YF]
answer.label: lo
--
residue.string: RRNEEYCLLDS [ITK_Y198]
answer.label: hi
--
residue.string: ETKKQYDSFTF [TMED3_Y85_YF]
answer.label: med

Sort YSIDYYRVGGH [NTRK2_Y707_T704I] into one of the categories.
hi

Sort FRASFYRKGGC [ALK_Y1283_YF] into one of the categories.
med

Sort ISPPVYLTNEW [NRK_Y885] into one of the categories.
med

Sort MIAIRYSHSRR [ACOXL_Y260_T255M] into one of the categories.
lo

Sort TFGVAYRAKDK [CDK11B_Y453_V452A_YF] into one of the categories.
lo

Sort KPRKPYTIKKP [BRD2_Y715] into one of the categories.
hi

Sort SHNELYYEAAE [VANGL1_Y344_E347A] into one of the categories.
hi

###

# target.or.system: Jak2 (UniProt O60674)
# Sequence (O60674 whole entry, looked up): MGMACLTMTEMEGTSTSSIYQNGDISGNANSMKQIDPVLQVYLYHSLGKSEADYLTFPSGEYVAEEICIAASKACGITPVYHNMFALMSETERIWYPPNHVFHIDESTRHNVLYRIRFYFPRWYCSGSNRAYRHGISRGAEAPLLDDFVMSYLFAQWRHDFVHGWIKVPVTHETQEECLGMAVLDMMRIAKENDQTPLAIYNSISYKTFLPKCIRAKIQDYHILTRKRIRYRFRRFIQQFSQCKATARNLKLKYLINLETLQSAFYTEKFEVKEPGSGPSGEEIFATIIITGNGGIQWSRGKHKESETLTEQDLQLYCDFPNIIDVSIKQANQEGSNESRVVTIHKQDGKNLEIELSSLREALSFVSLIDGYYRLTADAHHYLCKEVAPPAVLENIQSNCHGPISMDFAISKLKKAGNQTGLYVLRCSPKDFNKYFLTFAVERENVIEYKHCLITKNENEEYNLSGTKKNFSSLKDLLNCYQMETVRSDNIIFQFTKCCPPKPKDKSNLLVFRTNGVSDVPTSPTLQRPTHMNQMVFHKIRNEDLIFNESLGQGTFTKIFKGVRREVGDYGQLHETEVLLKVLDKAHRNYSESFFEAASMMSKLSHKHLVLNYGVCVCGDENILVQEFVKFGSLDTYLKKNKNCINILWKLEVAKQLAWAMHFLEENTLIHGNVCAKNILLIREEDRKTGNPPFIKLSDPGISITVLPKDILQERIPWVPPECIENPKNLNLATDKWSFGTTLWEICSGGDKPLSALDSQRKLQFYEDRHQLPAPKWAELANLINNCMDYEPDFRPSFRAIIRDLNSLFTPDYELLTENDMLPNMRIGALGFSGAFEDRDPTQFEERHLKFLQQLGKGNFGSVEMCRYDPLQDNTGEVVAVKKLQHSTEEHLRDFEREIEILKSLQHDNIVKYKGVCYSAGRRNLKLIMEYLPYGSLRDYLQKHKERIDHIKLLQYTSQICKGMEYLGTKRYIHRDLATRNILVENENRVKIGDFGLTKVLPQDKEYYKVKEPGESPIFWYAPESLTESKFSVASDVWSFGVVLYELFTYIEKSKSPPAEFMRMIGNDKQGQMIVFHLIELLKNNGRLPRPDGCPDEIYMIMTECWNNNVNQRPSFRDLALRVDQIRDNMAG
# assay.explanation: phosphorylation enrichment, bacterial display (enrichment ratio); higher = better substrate or ligand; peptides without Tyr show the background
The threshold is inclusive: phosphorylation enrichment of exactly 1 counts as Fulfilled; values below receive Not fulfilled.

residue.string: VKKKLYEEIDQ [CYP17A1_Y329]
answer.label: Not fulfilled

residue.string: DKNSSYFADWF [TUBB8_Y340_L345F]
answer.label: Fulfilled

Quick check, phosphorylation enrichment >= 1? NHFKIYNLCAE [PTEN_Y68_YF]
Not fulfilled

Quick check, phosphorylation enrichment >= 1? CTLLPYYSARV [DGKE_Y269]
Not fulfilled

Quick check, phosphorylation enrichment >= 1? IFHLSYIHNCE [PDE6B_Y227_L228I_YF]
Fulfilled

Quick check, phosphorylation enrichment >= 1? YIRKDYEACKA [BBS4_Y48]
Not fulfilled

Quick check, phosphorylation enrichment >= 1? RMDGTYACSFT [FLNB_Y704_YF]
Not fulfilled

Quick check, phosphorylation enrichment >= 1? PATINYPFEKG [NDUFS8_Y84]
Not fulfilled

Quick check, phosphorylation enrichment >= 1? SFSGEYGSGGG [ZG16_Y30_G32S_YF]
Not fulfilled

###

# target.or.system: Jak2 (UniProt O60674)
# assay.explanation: phosphorylation enrichment, bacterial display (enrichment ratio); higher = better substrate or ligand; peptides without Tyr show the background
measurement.type: phosphorylation enrichment
Please give only the number in your answer, with no unit.

residue.string: KLRMESLSLMH [NCKIPSD_Y660_Y660S]
value: 0.644

Read the entry NQDRTYYESVR [SPEN_Y632] and write its reported phosphorylation enrichment.
0.762

Read the entry RRERLYGGGGG [FUS_Y526_P525L] and write its reported phosphorylation enrichment.
0.528

Read the entry GVLKEYGEKVL [CPS1_Y529_V531E] and write its reported phosphorylation enrichment.
0.573

Read the entry SELVRYDARVH [MET_Y971] and write its reported phosphorylation enrichment.
0.687

###

# target.or.system: c-Src SH2
# assay.explanation: SH2 binding enrichment of the phosphorylated peptide, bacterial display (enrichment ratio); higher = better substrate or ligand; peptides without Tyr show the background
The threshold is inclusive: SH2 binding enrichment of exactly 0.5 counts as true; values below receive false.

Below are worked cases with known answers.
residue.string: AVLSLYASGRN [ACTA1_Y145_T150N]
answer.label: true
--
residue.string: GGFTRYCDGKK [PROS1_Y266_C265R_YF]
answer.label: true
--
residue.string: RVQQIYSDSDL [MIB1_Y376]
answer.label: true
--
residue.string: HNLNYYKKTTN [FGFR3_Y648_D646N]
answer.label: false
--
residue.string: SIVEDYRPPFF [ACVRL1_Y421_G416S_YF]
answer.label: false

Quick check, SH2 binding enrichment >= 0.5? VYYGSYSCPYG [NKAP_Y104_R106C]
true

Quick check, SH2 binding enrichment >= 0.5? KVGRVYLFLQP [ITGA2B_Y360_E355K]
false

Quick check, SH2 binding enrichment >= 0.5? KTNVSYFGALD [CACNB4_Y103_C104F]
false

Quick check, SH2 binding enrichment >= 0.5? QSPQLYKQMCI [DARS1_Y253]
true

###

# target.or.system: MERTK (UniProt Q12866)
# assay.explanation: phosphorylation enrichment, bacterial display (enrichment ratio); higher = better substrate or ligand; peptides without Tyr show the background
Measured phosphorylation enrichment of individual entries
Please give only the number in your answer, with no unit.

Read the entry VPLLEYFRDIF [CDAN1_Y712_YF] and write its reported phosphorylation enrichment.
0.56

Read the entry EVASVYESFQP [MAVS_Y92_Q93E_YF] and write its reported phosphorylation enrichment.
3.2

Read the entry VASIFYTLVIP [OR8K3_Y277] and write its reported phosphorylation enrichment.
5.43

Read the entry QLQTNYPSSDN [MAX_Y115] and write its reported phosphorylation enrichment.
0.657

###

Measured SH2 binding enrichment of individual entries
# target.or.system: SHP2-C SH2
# assay.explanation: SH2 binding enrichment of the phosphorylated peptide, bacterial display (enrichment ratio); higher = better substrate or ligand; peptides without Tyr show the background
Please give only the number in your answer, with no unit.

Some solved entries appear below for comparison.
residue.string: GVMLLYYGRYN [ADGRD1_Y85_T82M]
measurement.type: SH2 binding enrichment
value: 0.921
//
residue.string: LRSRVYEVPVE [SLC26A3_Y756_N753S]
measurement.type: SH2 binding enrichment
value: 0.461
//
residue.string: FTNRNYDLDYD [MYC_Y12]
measurement.type: SH2 binding enrichment
value: 0.517
//
residue.string: LDYNEYFRGLN [HPRT1_Y198_D201G]
measurement.type: SH2 binding enrichment
value: 0.812
//
residue.string: RGRSTYYWPRP [GAGE12J_Y9]
measurement.type: SH2 binding enrichment
value: 0.55
//
residue.string: RQQQDYWLIDV [ANPEP_Y600]
measurement.type: SH2 binding enrichment
value: 0.913
//
residue.string: SLTRLYVGENA [NLRP3_Y861]
measurement.type: SH2 binding enrichment
value: 0.452
//
residue.string: RDLHTYIMPAH [PNMT_Y256_R254H]
measurement.type: SH2 binding enrichment
value: 0.504

Read the entry HNLNYYKKTTN [FGFR3_Y648_D646N] and write its reported SH2 binding enrichment.
0.683

Read the entry KFDLMYAKLAF [TUBA1A_Y399_R402L] and write its reported SH2 binding enrichment.
7.45

Read the entry `ENAGYYFQVSA` and write its reported SH2 binding enrichment.
0.884

Read the entry SGVVPYEPPEV [TP53_Y220_V216G] and write its reported SH2 binding enrichment.
0.77

Read the entry NHFKIYNLCAE [PTEN_Y68_YF] and write its reported SH2 binding enrichment.
0.825
